target: human cardiac ion channel proteins hKir3.1/Kir3.4 (Homo sapiens, UniProt P48544+P48549); construct: expressed in transfected cells; experiment: Atomic Absorption Screening (AAS) Rb efflux assay of hKir3.1/Kir3.4 block, carbachol/high K+ stimulated, 10-pt or 7-pt CR; format: cell-based; details: 7-pt CR (0.037 to 27 μmol/L), AAS Rb efflux, CHO-K1 cells expressing hKir3.1/Kir3.4; mean of >3 replicates; read-out: IKACh IC50 7-pt CR, AAS
Sequence (P48549 whole entry): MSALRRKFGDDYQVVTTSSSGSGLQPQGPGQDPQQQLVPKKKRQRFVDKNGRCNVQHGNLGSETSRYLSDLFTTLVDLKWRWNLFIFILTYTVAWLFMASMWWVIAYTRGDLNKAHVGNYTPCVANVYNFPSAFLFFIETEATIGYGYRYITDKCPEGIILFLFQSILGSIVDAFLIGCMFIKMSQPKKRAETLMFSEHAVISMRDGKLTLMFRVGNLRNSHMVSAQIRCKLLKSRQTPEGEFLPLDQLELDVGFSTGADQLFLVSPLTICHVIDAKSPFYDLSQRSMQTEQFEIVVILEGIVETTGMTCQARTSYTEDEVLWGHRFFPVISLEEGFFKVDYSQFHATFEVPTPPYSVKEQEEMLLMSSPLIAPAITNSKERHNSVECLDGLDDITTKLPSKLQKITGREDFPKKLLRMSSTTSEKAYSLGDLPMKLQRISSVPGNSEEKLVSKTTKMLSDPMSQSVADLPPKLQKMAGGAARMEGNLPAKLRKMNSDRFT
Sequence (P48544 whole entry): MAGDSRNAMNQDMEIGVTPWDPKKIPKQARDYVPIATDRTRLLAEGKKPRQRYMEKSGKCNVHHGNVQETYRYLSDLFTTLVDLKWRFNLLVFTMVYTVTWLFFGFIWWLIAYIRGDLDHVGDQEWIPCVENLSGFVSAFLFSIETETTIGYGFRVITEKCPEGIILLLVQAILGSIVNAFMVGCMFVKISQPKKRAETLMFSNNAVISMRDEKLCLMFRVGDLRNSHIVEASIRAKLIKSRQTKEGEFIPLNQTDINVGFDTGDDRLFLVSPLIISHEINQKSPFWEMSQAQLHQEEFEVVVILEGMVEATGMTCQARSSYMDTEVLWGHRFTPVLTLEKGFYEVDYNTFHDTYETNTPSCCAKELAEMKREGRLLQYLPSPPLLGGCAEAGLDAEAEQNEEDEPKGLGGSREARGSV
measuredEndpoint: IC50 (µM)
The answer is to be given in µM; state only the numeric part.

Past entries and their recorded results:
>  <chemicalStructure>
CC(C)[C@@H](CN1CCCCC1)N(C)C(=O)c1ccc(Cl)cc1Cl

>  <IC50 / µM>
1.7

$$$$
>  <chemicalStructure>
CC(C)[C@@H](CN1CC[C@H](O)C1)N(C)C(=O)c1ccc(F)cc1Cl

>  <IC50 / µM>
3.7

$$$$
>  <chemicalStructure>
Cc1c(F)cccc1C(=O)N(C)[C@H](CN1CCCCC1)C(C)C

>  <IC50 / µM>
17

$$$$
>  <chemicalStructure>
CC(C)[C@@H](CN1CCCC1)N(C)C(=O)c1ccc(F)cc1C(F)(F)F

>  <IC50 / µM>
6.7

$$$$
>  <chemicalStructure>
CC(C)[C@@H](CN1CCCC1)N(C)C(=O)c1ccc(Cl)cc1

>  <IC50 / µM>
1.2

$$$$
>  <chemicalStructure>
CC(C)[C@@H](CN1CCCC1)N(C)C(=O)c1ccc(Br)cc1

>  <IC50 / µM>
0.82

$$$$
>  <chemicalStructure>
CC(C)[C@@H](CN1CCCC1)N(C)C(=O)c1ccccc1C(F)(F)F

>  <IC50 / µM>
14

$$$$
>  <chemicalStructure>
CC(C)[C@H](CN1CCCC1)N(C)C(=O)c1ccc(Cl)cc1Cl

>  <IC50 / µM>
5.8

$$$$

Now for the molecule whose IC50 we want.
Qu. Form field: IC50 recorded for CC(C)[C@@H](CN1CCCCC1)N(C)C(=O)c1cccc(Br)c1 with human cardiac ion channel proteins hKir3.1/Kir3.4 (Homo sapiens, UniProt P48544+P48549) (enter value)
Ans. 12

###

target: human cardiac ion channel proteins hKir3.1/Kir3.4 (Homo sapiens, UniProt P48544+P48549); construct: expressed in transfected cells; assay: Atomic Absorption Screening (AAS) Rb efflux assay of hKir3.1/Kir3.4 block, carbachol/high K+ stimulated, 10-pt or 7-pt CR; type: cell-based; details: 7-pt CR (0.037 to 27 μmol/L), AAS Rb efflux, CHO-K1 cells expressing hKir3.1/Kir3.4; mean of >3 replicates; read-out: IKACh IC50 7-pt CR, AAS
measuredEndpoint: IC50 (µM)
The answer is to be given in µM; state only the numeric part.

>  <chemicalStructure>
Cc1c(F)cccc1C(=O)N(C)[C@H](CN1CCCC1)C(C)C

>  <IC50 (µM)>
5.3

$$$$
>  <chemicalStructure>
CC(C)[C@@H](CN1CC[C@H](O)C1)N(C)C(=O)c1ccc(OC(F)(F)F)cc1

>  <IC50 (µM)>
6.8

$$$$
>  <chemicalStructure>
CC(C)[C@@H](CN1CCCC1)N(C)C(=O)c1cccc(OC(F)(F)F)c1

>  <IC50 (µM)>
2.6

$$$$
>  <chemicalStructure>
Cc1cc(C(=O)N(C)[C@H](CN2CCCCC2)C(C)C)ccc1Cl

>  <IC50 (µM)>
2.8

$$$$

Now for the compound whose IC50 we want.
Qu. Requested field: IC50. Item: CC(C)[C@@H](CN1CCCC1)N(C)C(=O)c1ccccc1F
Ans. 11

###

// reported pIC50 for each item listed
target: human cardiac ion channel proteins hKir3.1/Kir3.4 (Homo sapiens, UniProt P48544+P48549); construct: expressed in transfected cells; experiment: Atomic Absorption Screening (AAS) Rb efflux assay of hKir3.1/Kir3.4 block, carbachol/high K+ stimulated, 10-pt or 7-pt CR; type: cell-based; conditions: 10-pt CR (0.003 to 67 μmol/L), AAS Rb efflux, CHO-K1 cells expressing hKir3.1/Kir3.4; mean of >4 replicates; read-out: IKACh IC50 10-pt CR, AAS
Answer as the number alone; pIC50 is minus log10 of concentration in mol/L.

Past entries and their recorded results:
>  <compound>
CC(C)[C@@H](CN1CC[C@@H](O)C1)N(C)C(=O)c1ccc(F)c(C(F)(F)F)c1 [Example 17.7]

>  <pIC50>
5.44

$$$$
>  <compound>
CC(C)[C@@H](CN1C[C@H](O)[C@@H](O)C1)N(C)C(=O)c1ccc(Cl)c(F)c1 [Example 8.15]

>  <pIC50>
5.35

$$$$
>  <compound>
CCC[C@@H](CN1CC(OCC#N)C1)N(C)C(=O)c1ccc(Cl)cc1 [Example 31.3]

>  <pIC50>
5.77

$$$$
>  <compound>
Cc1ccc(C(=O)N(C)[C@H](CN2CC(O)(C3CC3)C2)C2CC2)cc1C [Example 9.5]

>  <pIC50>
5.89

$$$$
>  <compound>
CC[C@H](C)[C@@H](CN1CC(O)C1)N(C)C(=O)c1cc(C)ccc1OC [Example 29.8]

>  <pIC50>
4.96

$$$$
>  <compound>
CN(C(=O)c1ccc(F)c(F)c1)[C@H](CN1CC(O)C1)C1CCCC1 (single isomer, unassigned) [32.1, isomer 1]

>  <pIC50>
6.59

$$$$
>  <compound>
CN(C(=O)c1ccc(F)cc1)[C@H](CN1CC(O)C1)C1CCC1 [Example 39.13]

>  <pIC50>
6.80

$$$$
>  <compound>
CCC[C@@H](CN1CC(O)C1)N(C)C(=O)c1ccc(F)cc1 [Example 8.6]

>  <pIC50>
5.07

$$$$
>  <compound>
CN(C(=O)c1ccc(F)c(C#N)c1)[C@@H](CN1CC(O)C1)C1CCC1 [Example 35.9]

>  <pIC50>
5.34

$$$$
>  <compound>
CC[C@H](C)[C@@H](CN1CCCC1)N(C)C(=O)c1ccc(Cl)cc1Cl [Example 2.6]

>  <pIC50>
5.70

$$$$

Qu. Requested field: pIC50. Item: CCC[C@@H](CN1CCC(OC)CC1)N(C)C(=O)c1ccc(Cl)cc1 [Example 45]
Ans. 6.17

Qu. Same read-out for COc1cc(Cl)ccc1C(=O)N(C)[C@@H](CC(C)C)CN1CC(O)C1 [Example 38.7] ?
Ans. 6.33

Qu. Same read-out for Cc1cc(C(=O)N(C)C(CN2CC(O)C2)C2CCCC2)ccc1F (single isomer, unassigned) [32.4, isomer 1] ?
Ans. 7.47

Qu. Same read-out for CN(C(=O)c1cccc(C(F)F)c1)[C@H](CN1CC(O)C1)C1CCC1 [Example 39.15] ?
Ans. 6.60

Qu. Same read-out for CCc1ccc(C(=O)N(C)[C@@H](CC(C)C)CN2CC(O)C2)cc1 [Example 38.3] ?
Ans. 5.68

Qu. Same read-out for CCN(C(=O)c1ccc(Cl)cc1)[C@H](CN1CCC1)C(C)C [Example 11] ?
Ans. 5.25

Qu. Same read-out for CC(C)[C@@H](CN1CC[C@H](O)C1)N(C)C(=O)c1ccc(Cl)cc1 [Example 10.2] ?
Ans. 5.29

Qu. Same read-out for COc1ccc(C(=O)N(C)C(CN2CC(O)C2)C2CCCC2)cc1 (single isomer, unassigned) [32.2, isomer 1] ?
Ans. 6.24

Qu. Same read-out for CN(C(=O)c1ccc(F)c(Cl)c1)[C@H](CN1CCCC1)C1CC1 [Example 13.1] ?
Ans. 5.60

Qu. Same read-out for CCC[C@@H](CN1CC(OC(C)C)C1)N(C)C(=O)c1ccc(Cl)cc1 [Example 31.4] ?
Ans. 6.48

Qu. Same read-out for CC(C)[C@@H](CN1C[C@H](O)[C@@H](O)C1)N(C)C(=O)c1ccc(Cl)cc1 [Example 8.14] ?
Ans. 5.24

Qu. Same read-out for Cc1cc(C(=O)N(C)[C@H](CN2CCC2)C2CC2)ccc1F [Example 4.1] ?
Ans. 5.23

Qu. Same read-out for CN(C(=O)c1ccc(F)c(F)c1)[C@@H](CN1CC(O)C1)C1CCC1 [Example 35.7] ?
Ans. 5.41

Qu. Same read-out for CCC[C@@H](CN1CC(O)C1)N(C)C(=O)c1cccc(C(F)(F)F)c1 [Example 8.8] ?
Ans. 5.62

Qu. Same read-out for C[C@@H](CN1CC(O)C1)N(C)C(=O)c1ccc(Cl)cc1 [Example 40.1] ?
Ans. 5.01

Qu. Same read-out for COc1ccc(C(=O)N(C)[C@@H](CN2CC(O)C2)C2CCC2)c(F)c1 [Example 35.12] ?
Ans. 4.80
